Recorded values, source the supplement of paper PMC8728848.

- TARGET_OF_ASSAY: Gal(b1-3)GlcNAc(b1-3)Gal(b1-4)Glc
- TEST: glycan array binding signal (z-score within array); higher = stronger binding
- CONDITION_LABEL: glycan notation: IUPAC condensed, linker removed
The entries come from a sample that favours the strongest signals as a whole.
RECORDED_METRIC: glycan array binding signal (z-score)
// response body must contain only the number

// sample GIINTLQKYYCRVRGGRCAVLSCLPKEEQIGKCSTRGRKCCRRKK [Beta-Defensin 3 (Homo sapiens), P81534] , its glycan array binding signal (z-score) was -0.348

// sample Gal 3 (Canis lupus) (protein) MADSFSLNDALSGSGNPNPQGWPGPWGNQPAGAGGYPGASYPGAYPGQAPPGGYPGQAPPGGYPGQAPPGGYPGQAPPGGYPGQAPPGGYPGQAPPGTYPGPTAPAYPGPTAPGTQPGQPSGPGAYPPPGQPSAPGAYPAAGPFGIPAGPLTVPYDLPLPGGVKPRMLITILGTVRPSANRLALDFKRGNDVAFHFNPRFNEDNKRVIVCNTKLDNIWGKEERQAAFPFESGKPFKIQVLVESDHFKVAVNDAHLLQYNHRMKNLPEISKLGISGDIDLTSASYAMI , its glycan array binding signal (z-score) was -0.074

// sample B936 (Bifidobacterium sp) (protein) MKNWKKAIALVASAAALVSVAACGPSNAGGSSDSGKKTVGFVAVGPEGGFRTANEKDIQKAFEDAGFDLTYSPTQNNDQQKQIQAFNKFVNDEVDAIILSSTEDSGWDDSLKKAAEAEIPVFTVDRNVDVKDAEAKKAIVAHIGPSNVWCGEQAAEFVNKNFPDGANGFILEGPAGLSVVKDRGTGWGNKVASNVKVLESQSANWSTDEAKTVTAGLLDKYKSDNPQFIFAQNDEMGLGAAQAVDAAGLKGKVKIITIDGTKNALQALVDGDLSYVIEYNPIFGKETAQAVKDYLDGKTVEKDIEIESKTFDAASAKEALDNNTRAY , its glycan array binding signal (z-score) was 1.71

// sample FGFR2-Fc (protein) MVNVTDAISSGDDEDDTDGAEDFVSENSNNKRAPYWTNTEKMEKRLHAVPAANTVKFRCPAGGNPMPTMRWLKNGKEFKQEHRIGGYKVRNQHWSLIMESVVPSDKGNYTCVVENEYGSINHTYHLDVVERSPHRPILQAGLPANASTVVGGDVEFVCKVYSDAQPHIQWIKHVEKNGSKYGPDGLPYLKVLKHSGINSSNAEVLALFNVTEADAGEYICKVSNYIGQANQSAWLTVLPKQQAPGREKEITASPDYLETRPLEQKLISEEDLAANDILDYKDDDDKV , its glycan array binding signal (z-score) was -0.488

// sample CALR truncated at D342 (Homo sapiens) (protein) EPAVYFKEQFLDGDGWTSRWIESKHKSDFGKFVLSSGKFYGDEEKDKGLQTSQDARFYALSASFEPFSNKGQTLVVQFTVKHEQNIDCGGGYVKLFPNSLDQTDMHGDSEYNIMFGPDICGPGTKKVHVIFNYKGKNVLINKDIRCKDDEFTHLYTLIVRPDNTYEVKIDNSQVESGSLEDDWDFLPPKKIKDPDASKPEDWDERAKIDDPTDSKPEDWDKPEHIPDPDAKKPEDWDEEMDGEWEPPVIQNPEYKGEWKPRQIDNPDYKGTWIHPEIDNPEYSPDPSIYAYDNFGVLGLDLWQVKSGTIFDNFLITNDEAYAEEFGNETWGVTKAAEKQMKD , its glycan array binding signal (z-score) was -0.183
